- assayed-system: HLA-B*07 (Homo sapiens, UniProt P01889)
- assay-comment: MHC binding assay (UV-ligand exchange, ELISA of stabilized MHC complexes)
- test-context: peptide exchange yield on HLA-B*07, UV-ligand exchange
parameter: Peptide exchange

Worked cases, answers included:
>  <substance>
94 (LPMSKRQEY; listed as Homo sapiens) [compound 94]

>  <Peptide exchange>
+++ (>50 = +++)

$$$$
>  <substance>
84 (MPMQDIKMI; listed as Homo sapiens) [compound 84]

>  <Peptide exchange>
+++ (>50 = +++)

$$$$
>  <substance>
312 (SPSLQSSRESL; listed as Homo sapiens) [compound 312]

>  <Peptide exchange>
+++ (>50 = +++)

$$$$
>  <substance>
289 (LPYEKVSRL; listed as Homo sapiens) [compound 289]

>  <Peptide exchange>
+++ (>50 = +++)

$$$$
>  <substance>
161 (ASKILETSL; listed as Homo sapiens) [compound 161]

>  <Peptide exchange>
++ (>20% = ++)

$$$$
>  <substance>
320 (APMHIDRNIL; listed as Homo sapiens) [compound 320]

>  <Peptide exchange>
++++ (>75% = ++++)

$$$$
>  <substance>
42 (APLKMLAL; listed as Homo sapiens) [compound 42]

>  <Peptide exchange>
++++ (>75% = ++++)

$$$$
>  <substance>
233 (MAYDRFIAI; listed as Homo sapiens) [compound 233]

>  <Peptide exchange>
+++ (>50 = +++)

$$$$

Lookup: Can you share its Peptide exchange? I mean this substance: 102 (MAGPAIHTAPM; listed as Homo sapiens) [compound 102]
Found: ++ (>20% = ++)

Lookup: So what does the record say about Peptide exchange for 111 (YPLQQTNVY; listed as Homo sapiens) [compound 111] ?
Found: + (>10% = +)

Lookup: Entry 133 (LPELPTTLTF; listed as Homo sapiens) [compound 133] has what Peptide exchange?
Found: ++ (>20% = ++)

Lookup: Which Peptide exchange is listed for 130 (GAYDKARYL; listed as Homo sapiens) [compound 130] ?
Found: ++ (>20% = ++)

Lookup: What does the record list as Peptide exchange for 236 (TPELKSSIL; listed as Homo sapiens) [compound 236] ?
Found: +++ (>50 = +++)
